- assay-target: complex I (NADH:ubiquinone oxidoreductase), Pd-CI (Paracoccus denitrificans, UniProt A1B487+A1B495+A1B497)
- Construct: gene nuoD; intact purified complex I, His6-tag on C-terminus of Nqo5 (Pd-Nqo5^His6); with multisubunit complex (14 core Nqo subunits plus PdNUMM, PdNUYM, PdN7BM)
- Sequence (A1B496 entry or part of it): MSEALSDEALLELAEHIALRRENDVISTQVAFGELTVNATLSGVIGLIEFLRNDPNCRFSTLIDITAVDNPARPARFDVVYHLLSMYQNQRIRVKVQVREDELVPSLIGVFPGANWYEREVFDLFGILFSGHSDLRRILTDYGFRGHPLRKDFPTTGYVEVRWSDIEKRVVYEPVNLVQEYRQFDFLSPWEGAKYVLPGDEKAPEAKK
- Sequence (A1B495 whole entry): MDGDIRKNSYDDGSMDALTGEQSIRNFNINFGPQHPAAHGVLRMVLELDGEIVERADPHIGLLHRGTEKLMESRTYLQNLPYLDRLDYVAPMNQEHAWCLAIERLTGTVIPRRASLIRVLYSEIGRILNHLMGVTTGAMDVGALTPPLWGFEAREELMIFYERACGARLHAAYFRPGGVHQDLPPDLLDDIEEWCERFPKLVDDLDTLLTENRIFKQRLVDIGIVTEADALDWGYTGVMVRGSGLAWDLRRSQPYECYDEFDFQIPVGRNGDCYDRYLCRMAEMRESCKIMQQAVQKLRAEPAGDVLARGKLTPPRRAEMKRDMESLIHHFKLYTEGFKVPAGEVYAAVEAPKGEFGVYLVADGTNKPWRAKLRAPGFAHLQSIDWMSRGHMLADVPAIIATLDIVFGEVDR
- Sequence (A1B487 whole entry): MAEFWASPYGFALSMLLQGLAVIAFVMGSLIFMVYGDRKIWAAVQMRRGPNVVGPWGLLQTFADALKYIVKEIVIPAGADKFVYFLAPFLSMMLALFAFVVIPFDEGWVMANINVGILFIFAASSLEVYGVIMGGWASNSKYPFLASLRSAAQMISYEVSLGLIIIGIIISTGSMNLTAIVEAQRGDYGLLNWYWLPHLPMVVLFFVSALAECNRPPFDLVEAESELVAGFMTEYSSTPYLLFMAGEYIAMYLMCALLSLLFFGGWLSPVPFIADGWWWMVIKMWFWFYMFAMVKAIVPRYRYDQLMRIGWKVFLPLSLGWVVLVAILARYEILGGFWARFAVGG
- Sequence (A1B498 entry or part of it, further chain): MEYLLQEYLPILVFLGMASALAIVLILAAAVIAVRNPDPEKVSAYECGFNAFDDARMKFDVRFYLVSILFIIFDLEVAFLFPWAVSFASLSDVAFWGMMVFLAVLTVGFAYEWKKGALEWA
- Sequence (A1B497 whole entry): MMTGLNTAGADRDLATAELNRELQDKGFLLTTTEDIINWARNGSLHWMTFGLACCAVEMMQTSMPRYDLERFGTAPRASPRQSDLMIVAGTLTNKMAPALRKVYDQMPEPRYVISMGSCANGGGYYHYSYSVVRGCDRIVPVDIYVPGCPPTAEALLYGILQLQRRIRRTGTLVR
- assay-name: NADH:DQ oxidoreductase assay, detergent-solubilized purified enzyme ([…] in proteoliposomes)
- Type: biochemical
pIC50: −log10 of the molar value.

| input-smiles | pIC50 |
| --- | --- |
| C/C=C(\C)[C@H](O)[C@H](C)/C=C(C)/C=C/C/C(C)=C/Cc1nc(OC)c(OC)c(O)c1C | 7.14 |
